# PROTOCOL SUMMARY: Stability in 90% human serum
half-life values, listed per item

INSERT INTO results (smiles, measurement_label, result) VALUES
  ('Cc1cc(C)c(C[C@@H]2NC(=O)[C@H]([C@@H](C)O)NC(=O)[C@H](CCCCN)NC(=O)[C@@H](Cc3c[nH]c4ccccc34)NC(=O)[C@H](Cc3ccccc3)NC(=O)[C@H](Cc3ccccc3)NC(=O)[C@H](CC(N)=O)NC(=O)[C@H](CCCCN)NC(=O)[C@@H](NC(=O)CNC(=O)[C@H](C)N)CSSC[C@@H](C(=O)O)NC(=O)[C@H](CO)NC(=O)[C@H]([C@@H](C)O)NC2=O)c(C)c1', 'half-life', '41 h'),
  ('CCCCCCCCCCCCCCCC(=O)NCCCC[C@@H]1NC(=O)[C@@H](NC(=O)CNC(=O)[C@H](C)N)CSSC[C@@H](C(=O)O)NC(=O)[C@H](CO)NC(=O)[C@H]([C@@H](C)O)NC(=O)[C@H](Cc2ccccc2)NC(=O)[C@H]([C@@H](C)O)NC(=O)[C@H](CCCCN)NC(=O)[C@H](Cc2c[nH]c3ccccc23)NC(=O)[C@H](Cc2ccccc2)NC(=O)[C@H](Cc2ccccc2)NC(=O)[C@H](CC(N)=O)NC1=O', 'half-life', '41.7 h');

Here is another molecule to look at.
stdin: Look up and report measured half-life for this entry: Cc1cc(C)c(C[C@@H]2NC(=O)[C@H](CC(N)=O)NC(=O)[C@H](CCCCN)NC(=O)[C@@H](NC(=O)CNC(=O)[C@H](C)N)CSSC[C@@H](C(=O)O)NC(=O)[C@H](CO)NC(=O)[C@H]([C@@H](C)O)NC(=O)[C@H](Cc3c(C)cc(C)cc3C)NC(=O)[C@H]([C@@H](C)O)NC(=O)[C@H](CCCCN)NC(=O)[C@H](Cc3c[nH]c4ccccc34)NC(=O)[C@H](Cc3c(C)cc(C)cc3C)NC2=O)c(C)c1
stdout: 93.3 h

---

# PROTOCOL SUMMARY: Stability in 90% human serum
MEASUREMENT LABEL: half-life (min)
The reply should be a number in min, with the unit left off.

Reference set (2 entries):
INSERT INTO assay_data (compound, number) VALUES
  ('Cc1cc(C)c(C[C@@H]2NC(=O)[C@H](CC(N)=O)NC(=O)[C@H](CCCCN)NC(=O)[C@@H](NC(=O)CNC(=O)[C@H](C)N)CSSC[C@@H](C(=O)O)NC(=O)[C@H](CO)NC(=O)[C@H]([C@@H](C)O)NC(=O)[C@H](Cc3ccccc3)NC(=O)[C@H]([C@@H](C)O)NC(=O)[C@H](CCCCN)NC(=O)[C@@H](Cc3c[nH]c4ccccc34)NC(=O)[C@H](Cc3ccccc3)NC2=O)c(C)c1 [Compound 24]', 1570),
  ('Cc1cc(C)c(C[C@@H]2NC(=O)[C@H](CC(N)=O)NC(=O)[C@H](CCCCN)NC(=O)[C@@H](NC(=O)CNC(=O)[C@H](C)N)CSSC[C@@H](C(=O)O)NC(=O)[C@H](CO)NC(=O)[C@H]([C@@H](C)O)NC(=O)[C@H](Cc3ccccc3)NC(=O)[C@H]([C@@H](C)O)NC(=O)[C@H](CCCCN)NC(=O)[C@H](Cc3c[nH]c4ccccc34)NC(=O)[C@H](Cc3c(C)cc(C)cc3C)NC2=O)c(C)c1 [Compound 27]', 2630);

Here is another compound to look at.
stdin: Look up and report measured half-life for this entry: Cc1cc(C)c(C[C@@H]2NC(=O)[C@H](Cc3ccccc3)NC(=O)[C@H](CC(N)=O)NC(=O)[C@H](CCCCN)NC(=O)[C@@H](NC(=O)CNC(=O)[C@H](C)N)CSSC[C@@H](C(=O)O)NC(=O)[C@H](CO)NC(=O)[C@H]([C@@H](C)O)NC(=O)[C@H](Cc3ccccc3)NC(=O)[C@H]([C@@H](C)O)NC(=O)[C@H](CCCCN)NC(=O)[C@@H](Cc3c[nH]c4ccccc34)NC2=O)c(C)c1 [Compound 25]
stdout: 1480

Values compiled from patent US8946154B2.
